From: PubChem BioAssay (NCI)

In this section, each of the compounds is paired with its reported TGI.
# Tested on: OVCAR-3 ovarian
# assayMethodText: NCI tumour cell line growth inhibition, 48 h

A selection of reference data follows.
compound	system	TGI
CCOC(=O)c1ccc(N2C(=O)/C(=C\OC)c3ccccc3C2=O)cc1	OVCAR-3 ovarian	> 100 µM
CC(C)CCC[C@@H](C)C1CCC2[C@@H]3CCC4CC(CCC=C(c5cc(Cl)c(OC(=O)c6ccccc6)c(C(=O)O)c5)c5cc(Cl)c(OC(=O)c6ccccc6)c(C(=O)O)c5)CC[C@]4(C)C3CC[C@@]21C (stereo partly drawn)	OVCAR-3 ovarian	> 100 µM

Q: Record lookup: for OVCAR-3 ovarian, what TGI belongs to CCOC(=O)C(C)c1cc(C2(C)OCCO2)c(C)o1 (stereo not drawn) ?
A: > 100 µM
